Tested on: Escherichia coli
assay_name: Antimicrobial activity against Escherichia coli isolate GZ15 transconjugant harboring 16S rRNA methylase RmtB and qepA by agar dilution method relative to recipient strain
Type: functional
attribute_measured: fold change (FC)

# structure, endpoint_result
data = [
    ("CCn1cc(C(=O)O)c(=O)c2cc(F)c(N3CCNCC3)cc21", 4),
    ("CCn1cc(C(=O)O)c(=O)c2ccc(C)nc21", 1),
    ("CCN1CCN(c2cc3c(cc2F)c(=O)c(C(=O)O)cn3C2CC2)CC1", 8),
]

Proceed to the following item.
I would be grateful if you could share the reported fold change (FC) for C[C@H]1COc2c(N3CCN(C)CC3)c(F)cc3c(=O)c(C(=O)O)cn1c23.C[C@H]1COc2c(N3CCN(C)CC3)c(F)cc3c(=O)c(C(=O)O)cn1c23.O .
2

====

Quick list: fold change (FC) per entry.
Test system: Escherichia coli
assay_name: Antimicrobial activity against Escherichia coli isolate GZ4 transconjugant harboring 16S rRNA methylase RmtB and qepA by agar dilution method relative to recipient strain
Format: functional

In the examples that follow, each entry is paired with its recorded fold change (FC).
# structure, fold change (FC)
measured = [
    ("C[C@H]1COc2c(N3CCN(C)CC3)c(F)cc3c(=O)c(C(=O)O)cn1c23.C[C@H]1COc2c(N3CCN(C)CC3)c(F)cc3c(=O)c(C(=O)O)cn1c23.O", 2),
    ("CCn1cc(C(=O)O)c(=O)c2cc(F)c(N3CCNCC3)cc21", 4),
    ("CCN1CCN(c2cc3c(cc2F)c(=O)c(C(=O)O)cn3C2CC2)CC1", 4),
]

Proceed to the following item.
I would be grateful if you could share the reported fold change (FC) for CCn1cc(C(=O)O)c(=O)c2ccc(C)nc21 .
2

====

Test system: Escherichia coli
assay_name: Antimicrobial activity against Escherichia coli isolate CQ19 transconjugant harboring 16S rRNA methylase RmtB and qepA, aac(6')-Ib-cr gene by agar dilution method relative to recipient strain
Assay type: functional
Quick list: fold change (FC) per entry.
Reply briefly: the number, and no unit.

# structure, fold change (FC)
rows = [
    ("CCn1cc(C(=O)O)c(=O)c2cc(F)c(N3CCNCC3)cc21", 16),
    ("CCn1cc(C(=O)O)c(=O)c2ccc(C)nc21", 1),
    ("CCN1CCN(c2cc3c(cc2F)c(=O)c(C(=O)O)cn3C2CC2)CC1", 4),
]

Proceed to the following item.
I would be grateful if you could share the reported fold change (FC) for C[C@H]1COc2c(N3CCN(C)CC3)c(F)cc3c(=O)c(C(=O)O)cn1c23.C[C@H]1COc2c(N3CCN(C)CC3)c(F)cc3c(=O)c(C(=O)O)cn1c23.O .
1

====

Quick list: fold change (FC) per entry.
Test system: Escherichia coli
assay_name: Antimicrobial activity against Escherichia coli isolate CQ6 transconjugant harboring 16S rRNA methylase RmtB and qepA, qnrS2, aac(6')-Ib-cr gene by agar dilution method relative to recipient strain
Format: functional

In the examples that follow, each entry is paired with its recorded fold change (FC).
# structure, endpoint_result
data = [
    ("CCN1CCN(c2cc3c(cc2F)c(=O)c(C(=O)O)cn3C2CC2)CC1", 2),
    ("CCn1cc(C(=O)O)c(=O)c2ccc(C)nc21", 16),
]

Proceed to the following item.
I would be grateful if you could share the reported fold change (FC) for CCn1cc(C(=O)O)c(=O)c2cc(F)c(N3CCNCC3)cc21 .
16
